assay: label from the status in PepcDB records

| sequenceInput | protein production |
| --- | --- |
| MKQFVVISGKGGTGKTSVTAGLAAVGKDMVLADCDVDAADLHLVLAPEIRERHDFISGVVASIEPEACISCGLCTTHCRYGAIPQGYAPQVAPEHCEGCGVCAHVCPTGAARLSDRRCGEWYVSDTRFGPMVHAALGIGEENSGKLVSTVRTRARELAEARDASVVLIDGSPGVGCPVIASLAGADAALAVTEPTVSALHDLERVHALARHFDVRMAVLLNKADIHPGMAERIIGYCTTHDLPLVGRFGFSPLFVQAQLEGRTLPEQDSGEWRQRFNGVWNQLLALVLEHHHHHH | failed |
| PDRAWINRCRTLSEHTDKAVRAQLAAHPKATGLHVAAAVMDALTDGDQLLLGASNPVRDAALVSYPAPKIRVLSNRGVAGIDGTVSAAVGAALAYEEGRTVALLGDLTFLHDASGLLIGSGEPRPRDLTIVVANDDGGGIFELLEQGDPQYAGVFERVFGTPHGMDLAALCAAYRVEHHLVGLGELSTRLSAPEAPGDRGIRVLEVTTERSGLRELHAAVRAQL | failed |

---

test: label from the status in PepcDB records
readoutType: protein production

| sequenceInput | assayResult |
| --- | --- |
| MKILVDENMPYARELFSRLGEVKAVPGRPIPVEELNHADALMVRSVTKVNESLLSGTPINFVGTATAGTDHVDEAWLKQAGIGFSAAPGCNAIAVVEYVFSALLMLAERDGFSLRDRTIGIVGVGNVGSRLQTRLEALGIRTLLCDPPRAARGDEGDFRTLDELVQEADVLTFHTPLYKDGPYKTLHLADETLIRRLKPGAILINACRGPVVDNAALLARLNAGQPLSVVLDVWEGEPDLNVALLEAVDIGTSHIAGYTLEGKARGTTQVFEAYSAFIGREQRVALETLLPAPEFGRITLHGPLDQPTLKRLAHLVYDVRRDDAPLRKVAGIPGEFDKLRKNYLERREWSSLYVMCDDETAAALLCKLGFNAVHHPAH | not failed |
| MYMKHIENGTRIEGEYIKNKVIQYNMSILTDEVKQPMEEVSLVVKNEEGKIFGGVTGTMYFYHLHIDFLWVDESVRHDGYGSQLLHEIEGIAKEKGCRLILLDSFSFQAPEFYKKHGYREYGVVEDHPKGHSQHFFEKRL | not failed |
| LRSPRLYTHRLILRPWLVQDRARFAELNADPLVMEFFPSCLDRAQSDALLRRIDAHFAEHGFGWWALQVKGGDPFIGYVGLEVVDFDAPFVPAVAIGWRLAAEHWAEGFAHEAAEAALSYAFDTLGLDQVVAFTVPANENSLGLMERLGMHRDPTDDFEHPDLPPGHRLRHHVLYRLTREDWLRR | not failed |

---

assay: label from the status in PepcDB records
readoutType: protein production

The cases that follow already have their protein production on record.
| sequenceInput | protein production |
| --- | --- |
| MFYRLLFASLWYILPAYVANASACIFGGGTPVDLGKNFIDGRRLIGNGVTYRGCIFGILCGTLVGLIQGILVDFNIFNSLDFYGTVLDHVILAFFLSVGAIVGDAVGSFIKRRLNIERGKPAPLLDQLDFVIGALAFGYIVAPIPYEMIIIICLFTVFVHLLGNIIAYKLGIKDVWW | failed |
| LAKILGMDSDGLNRLECFDISHTQGEATIASCVVYDEQNIQPSQYRRYNITTAKPGDDYAAMREVLTRRYGKMQEAEANGETVKWPDAVLIDGGKGQIGVAVSVWEELGLHIPLVGIAKGPERKAGMEELILPFTGEVFRLPPNSPALHLLQTVRDESHRFAI | failed |
| MDIKVSGRKTTVTDALRAHVDEKIGEALKVFDIEPMTVDVVLRYEKNPSNPNPAIVEVTARARGSVIRVAEHGADMYAAIDLSADKVTRQLRKFKTKVVDNRQGGASAADVAPVERVEDLADLLLPEEDDDLLVREKVIDVTPMTEEQALVQTDLLGHDFYVFENATTGLINVVYHRKNGGYGIIKPRIETLDE | failed |
| MSSDCLNVSYPATGCQKLFEVVDEHKLRVFYEKRMGQVVEADILGDEWKGYQLRIAGGNDKQGFPMKQGVLTHGRVRLLLKKGHSCYRPRRTGERKRKSVRGCIVDANMSVLALVVLKKGEKDIPGLTDTTIPRRLGPKRASKIRKLYNLSKEDDVRRFVVRRPLPAKDNKKATSKAPKIQRLITPVVLQRKHRRIALKKKRQIASKEASADYAKLLVQRKKESKAKREEAKRRRSASIRESKSSVSSDKK | failed |
| MSKSTKVDLVFLFFTAIWGLSFPLTKNVLGYTSIFAFLSLRFTSAAVILIIIFWKKLKLINTKIILYGSLIGLMFFGSLAFQVASLRFTTSSNSSFISALSVVIVPLVSAGYYKKKIDFSCVLGVLFAVVGLFFISGGVNFKLNIGDLFSFLCAICITFQIIFIDIFCSKCDSALLSLIQVVFCAIFYNIVLFIIGTKPIVFNTQLTVSIFITGILGTAVAYTGIVFLEKFTSPTHTALIFCAEPVFATIFAMFIPNNNGSCESITINTFIGCGVILLSMVISELKIGNNIPQKIIKL | failed |

input: For the sequence shown here, MVKMKKVEQLSSHLYLIDDFDLQHNERTGTYVLLGDDITLIETCAAPSLPYILDGLQQLHIDLNEVKNIIVTHVHLDHAGAAGLMMEKCPNATLYVHSRGARHMIDPTKLILGAKAVYKEDFDKLFDPILPIEEERVHIVQHGDTLQIAEDRILTFYDTPGHAKHHISIHDSLTNGIFTGDTIGIYYRELADLGVELYLPSTSPSQFQPDAMIASKNHIQSMNVDTIYFGHYGASSNVTEVYKQLEHWLPIFVHTGKEVFEKYNDFDEATKALQTILMDKISSHLIKLNVPSDHSVYNILHLDIEISAMGIIDYFTKLEKTNPPIS , give the reported protein production.
output: failed

input: I am curious: what protein production value has been reported for MMDSHCRVRAPGAAQPADCPPPTTQHAALAARLGHARLHTLYDQATWSEGPAWWEAQRTLVWSDVVGRRVLGWREDGAVDVLLDATAFTNGNAVDTQQRLVHCEHGRRAITRSEVDGRAHLLVGRFEGKRLNSPNDLIVARDGAIWFTDPPFGLRKPSQGCPGPQELDHHGVYRLPPDGGALQCMVNLDHPNGLAFSPDERVLYVSQTPEGGPGAPEITALDWHDGALHNRRRFAVVPEGLPDGFCVDCQGWLWSSSGAGVCVFDSGGHVLGLVPTPHTASNCTFDLVQRRLFITGGSTLWLLDLQR ?
output: failed

---

experiment: label from the status in PepcDB records

| sequenceInput | protein production |
| --- | --- |
| MFKRLKDSALLFWSLEILIVATLIWVCTNIGFLFQPIGTFLSVVFMPILISGFLFYMLNPLVKLLTKVHYKKFRISRTGAVAIVFVLLFGLLVWGAVSLLPRLVSQVTQLIYNLPSIATEMQKAATKLINNSSVLKRIDISSYTKQFNGEISKYSQNFLSSLSSSVVTVISTITSVTIMAITIPVVLFYMLKDSEKFIPAISRFLPKKQRPEVIGLLQKMGDTISSYISGQVIECLFVGTFTAIGYMLISQPYGLLLGVIAGLTNIIPYVGPYIGIAPSLIVAFTKSPMQVVYVIIVVVIVQQVDGNLIYPNIIGRTLKIHPLTIIILLLAAGNIAGILGMILAIPFYAVVRTVVIYLYNIVELRNEEHLRKQTTVYQPQPAKATKADLTTTTKSKK | failed |
| MKISIITAVYNDPRVERCLDSVASQQGNFEVEHIVVDSESTDDTVDVIEQYENHIDCLISEPDDGMYDAINKGIEAATGDVIGLLNADDYYQDQRVLHDVASQLAETGADACYGDLVYVDADDDVVRYWKSDEYSRYKLYYGWMPPHPTFFVRHEIYERHGGFDLSYEISADYELMIRLLLNTDISVTYLDRVLVRMELGGMSNQSIENMLTVIEDMYRGWKKHNRLGRFVAPFLHPVEKVPQFIRSPPGEKEGTLEHHHHHH | failed |

---

assay: label from the status in PepcDB records
readoutType: protein production

| sequenceInput | assayResult |
| --- | --- |
| MFLSVVTVAFRNYEGVVKTWRSLRNLARDPGLSFEWIVVDGGSEDGTREFLQKRHGEFNLRFISEKDRGIYDAMNKGIALAQGRYTLFLNSGDAFHDDAALFVRQLARQKGEAMYIGDALLDFGGGHKIRRKAKPGYYIYHSLPASHQAIFFPTAALKKYPYDLQYHVSSDYALAARLYKAGYPFRRINGLVSEFSMGGVSTSNNLELCQDAKNVQRKILRVPGFWAQLSYLLRLKTTGKTKARYNKVLEHHHHHH | failed |
| MAFAEGALDALKVAFQEGARSLVLLSPVLFRDALLSARLGALRFGLERGGVEGFARVGRALFFGALSAGSEEVYEAWKEGLSEAGLWRWLGRLEALADERRWLRGTAARVLVVQGALDAFTPPLHGAKVADFAKGEALRFVVDEAGHLVPWEAQEEVRDLVADFLLGEGFRPLPGGLAL | failed |

The measured values listed here are drawn from a protein production outcome set (Wang et al. 2014).
